# Test system: Abutilon theophrasti
# assay_remarks: Herbicidal post-emergence action (greenhouse pots), ABUTH
# Format: in vivo
# run_conditions: 1280 g/ha, visual rating about 3 weeks after treatment vs untreated controls
measured_attribute: herbicidal activity ABUTH (%)
Kindly answer with a numeric value in %, unit omitted.

[[record]]
smiles_entry = "N#Cc1cccc(Nc2ncc(Cl)cn2)c1Oc1ccc(F)cc1Cl"
quantitative_result = 90


Specify herbicidal activity ABUTH for N#Cc1cccc(Nc2ncc(F)cn2)c1Oc1ccc(F)c(F)c1F and stop.
100

Specify herbicidal activity ABUTH for Clc1cnc(Nc2ccccc2Oc2cccnc2)nc1 and stop.
90

Specify herbicidal activity ABUTH for N#Cc1cccc(Nc2ncc(F)cn2)c1Oc1ccc(F)cc1 and stop.
100

Specify herbicidal activity ABUTH for Fc1ccc(Oc2ccccc2Nc2ncc(Cl)cn2)cc1 and stop.
90

Specify herbicidal activity ABUTH for N#Cc1cccc(Nc2ccc(F)cn2)c1Oc1ccc(F)c(F)c1 and stop.
90

Specify herbicidal activity ABUTH for N#Cc1cccc(Nc2ncc(F)cn2)c1Oc1ccc(Cl)cc1F and stop.
90

Specify herbicidal activity ABUTH for N#Cc1cccc(Nc2ncc(F)cn2)c1Oc1ccc(Cl)nc1 and stop.
100

Specify herbicidal activity ABUTH for N#Cc1cccc(Nc2ncc(Cl)cn2)c1Oc1ccc(F)cc1 and stop.
100

Specify herbicidal activity ABUTH for Clc1cnc(Nc2cccc(Cl)c2Oc2ccccc2)nc1 and stop.
90

Specify herbicidal activity ABUTH for N#Cc1cccc(Nc2ncc(Cl)cn2)c1Oc1ccc(F)c(F)c1 and stop.
100

Specify herbicidal activity ABUTH for N#Cc1cccc(Nc2ncc(F)cn2)c1Oc1ccc(F)nc1 and stop.
100

Specify herbicidal activity ABUTH for N#Cc1cccc(Nc2ncc(Cl)cn2)c1Oc1ccc(F)nc1 and stop.
100

Specify herbicidal activity ABUTH for N#Cc1cccc(Nc2ncc(Cl)cn2)c1Oc1ccc(F)cc1F and stop.
90

Specify herbicidal activity ABUTH for N#Cc1cccc(Nc2ncc(F)cn2)c1Oc1ccc(Cl)cc1 and stop.
90

Specify herbicidal activity ABUTH for Fc1ccc(Oc2c(F)cccc2Nc2ncc(Cl)cn2)cc1 and stop.
100

Specify herbicidal activity ABUTH for Fc1ccc(Oc2c(Cl)cccc2Nc2ncc(Cl)cn2)cc1 and stop.
100

Specify herbicidal activity ABUTH for N#Cc1cccc(Nc2ncccn2)c1Oc1ccc(F)c(F)c1 and stop.
100

Specify herbicidal activity ABUTH for N#Cc1cccc(Nc2ncc(Cl)cn2)c1Oc1ccc(C(F)(F)F)cc1 and stop.
90

Specify herbicidal activity ABUTH for N#Cc1cccc(Nc2ncc(Cl)cn2)c1Oc1ccc(Cl)cc1 and stop.
90
